Target: α1β3γ2 GABAA/BzR (Homo sapiens, UniProt P14867+P18507)
Test: Competition binding to HEK cell membranes, α1β3γ2
Design: expressed in transfected cells
Details: Ki α1
endpointLabel: Ki (nM)
The reply should be a number in nM, with the unit left off.

If you can, please state the reported Ki value of Cc1nnc2n1-c1ccc(Cl)cc1C(c1ccccc1)=NC2 [alprazolam, reference compound] .
0.8

If you can, please state the reported Ki value of O=C(OCC(F)(F)F)c1cc2c(cn1)[nH]c1ccc(I)cc12 [WY-B-20] .
12

If you can, please state the reported Ki value of CCOC(=O)c1cc2c(cn1)[nH]c1ccc(C#C[Si](C)(C)C)cc12 [WY-B-99-1] .
4.4

If you can, please state the reported Ki value of CCCOc1ccc2[nH]c3cnc(C(=O)OCC)c(COC)c3c2c1 [6-PBC] .
0.49

If you can, please state the reported Ki value of CCOC(=O)c1ncc2[nH]c3ccc(OCc4ccccc4)cc3c2c1COC [ZK 93423, reference compound] .
4.1

---

Biological target: α1β3γ2 GABAA/BzR (Homo sapiens, UniProt P14867+P18507)
Test: Competition binding to HEK cell membranes, α1β3γ2
Set-up: expressed in transfected cells
Settings: Figure 5; read-out: Ki α1
endpointLabel: pKi
Conceptually, pKi converts a concentration in mol/L into minus its log10.

C#Cc1ccc2c(c1)C(=O)N1CCC1c1c(-c3ocnc3C(=O)OCC)ncn1-2 (stereo not shown) | 6.16

Proceed to the following item.
For the record "CCc1ccc2c(c1)C(=O)N(C)Cc1c(C(=O)OCCCOC(=O)c3ncn4c3CN(C)C(=O)c3cc(CC)ccc3-4)ncn1-2" , what value of pKi is listed for α1β3γ2 GABAA/BzR (Homo sapiens, UniProt P14867+P18507)?
5.73

---

Molecular target: α2β3γ2 GABAA/BzR (Homo sapiens, UniProt P18507+P47869)
Assay: Competition binding to HEK cell membranes, α2β3γ2
Set-up: expressed in transfected cells
Details: Figure 5; read-out: Ki α2
endpointLabel: pKi
Conceptually, pKi converts a concentration in mol/L into minus its log10.

If you can, please state the reported pKi value of CCOC(=O)c1ncoc1-c1ncn2c1C1CCN1C(=O)c1cc(C#C[Si](C)(C)C)ccc1-2 (stereo not shown) .
6.06

If you can, please state the reported pKi value of C#Cc1ccc2c(c1)C(=O)N1CCC1c1c(-c3ocnc3C(=O)OCC)ncn1-2 (stereo not shown) .
6.21

If you can, please state the reported pKi value of "CCc1ccc2c(c1)C(=O)N(C)Cc1c(C(=O)OCCCOC(=O)c3ncn4c3CN(C)C(=O)c3cc(CC)ccc3-4)ncn1-2" .
5.38

---

Target: α5β3γ2 GABAA/BzR (Homo sapiens, UniProt P18507+P31644)
Assay: Competition binding to HEK cell membranes, α5β3γ2
Design: expressed in transfected cells
Details: read-out: Ki α5
We begin with a simple list: items and their reported pKi.
Conceptually, pKi converts a concentration in mol/L into minus its log10.

Consider the following illustrative entries.
O=c1c2c[nH]c3ccccc3c-2nn1-c1ccccc1 [QH-II-090] | 9.60
CCCCc1cc2c(cn1)[nH]c1ccc(F)cc12 [CM-A58] | 6.00
COc1ccc2c(c1)C(=O)N(C)Cc1c(C(=O)OC(C)(C)C)ncn1-2 [DM-215] | 9.53
COc1ccc2c(c1)C(=O)N1CC[C@H]1c1c(C(=O)OC(C)(C)C)ncn1-2 [CM-D45] | 8.78
CCOC(=O)c1ncn2c1CN=C(c1ccccc1F)c1cc(Br)ccc1-2 [JYI-32] | 8.53

If you can, please state the reported pKi value of CCC(OC(=O)c1ncn2c1C1CCCN1C(=O)c1cc(F)ccc1-2)C(F)(F)F (mixture of isomers) [CM-B47] .
8.36

If you can, please state the reported pKi value of O=C(OCC(F)(F)F)c1ncn2c1C1CCCN1C(=O)c1cc(-c3ccco3)ccc1-2 (stereo not drawn) [JYI-13] .
7.80

If you can, please state the reported pKi value of O=C(OC(C(F)(F)F)C(F)(F)F)c1ncn2c1C1CCCN1C(=O)c1ccccc1-2 (stereo not drawn) [MMB-III-018] .
7.85

If you can, please state the reported pKi value of O=[N+]([O-])c1ccc2[nH]c3cnc([N+](=O)[O-])cc3c2c1 [EDC-I-071] .
6.50

If you can, please state the reported pKi value of C#Cc1ccc2[nH]c3cnc(C(=O)OC(C)(C)C)cc3c2c1 [WY-TSC-4] .
7.29

If you can, please state the reported pKi value of CC[C@H](C)OC(=O)c1ncn2c1[C@@H]1CCCN1C(=O)c1cc(F)ccc1-2 [CM-B44 (ss)] .
8.37

If you can, please state the reported pKi value of CC(C)(C)OC(=O)c1ncn2c1C1CCCN1C(=O)c1cc(Br)ccc1-2 (stereo not drawn) [JYI-01] .
7.97

If you can, please state the reported pKi value of COc1ccc2c(c1)C(=O)N1CCC1c1c(C(=O)OC(C)(C)C)ncn1-2 (stereo not drawn) [CM-D45 C19H21N3O4] .
8.78

If you can, please state the reported pKi value of CC(C)(C)OC(=O)c1cc2c(cn1)[nH]c1ccc(-c3ccccc3)cc12 [WYS15] .
7.12

If you can, please state the reported pKi value of COc1ccc2c(c1)C(=O)N1CCC[C@H]1c1c(C(=O)OCC(F)(F)F)ncn1-2 [CM-E09a] .
8.04

If you can, please state the reported pKi value of CCC(C)OC(=O)c1ncn2c1C1CCCN1C(=O)c1cc(F)ccc1-2 (stereo not drawn) [CM-B44] .
8.37

If you can, please state the reported pKi value of CCC(OC(=O)c1ncn2c1C1CCCN1C(=O)c1cc(Br)ccc1-2)C(F)(F)F (mixture of isomers) [CM-B34] .
7.77

If you can, please state the reported pKi value of Oc1ccc2c(c1)[nH]c1c2ncc2[nH]c3ccccc3c21 [MLT-II-34] .
6.80

---

Biological target: α2β3γ2 GABAA/BzR (Homo sapiens, UniProt P18507+P47869)
Experiment: Competition binding to HEK cell membranes, α2β3γ2
Design: expressed in transfected cells
Conditions: read-out: Ki α2
We begin with a simple list: items and their reported pKi.
Conceptually, pKi converts a concentration in mol/L into minus its log10.

Consider the following illustrative entries.
CCC(OC(=O)c1ncn2c1C1CCCN1C(=O)c1cc(Br)ccc1-2)C(F)(F)F (mixture of isomers) [CM-B34] | 6.35
O=C1CN=C(c2cccs2)c2cc(Br)ccc2N1 | 7.98
C#Cc1ccc2c(c1)C(c1cccs1)=NCC(=O)N2C | 7.35

Proceed to the following item.
If you can, please state the reported pKi value of CC(C)c1nc(-c2ncn3c2CN(C)C(=O)c2c(Cl)cccc2-3)no1 [FG8205, reference compound] .
8.68

---

Target: α1β3γ2 GABAA/BzR (Homo sapiens, UniProt P14867+P18507)
Assay: Competition binding to HEK cell membranes, α1β3γ2
Set-up: expressed in transfected cells
Details: binding to α1 subtypes
endpointLabel: pKi
Conceptually, pKi converts a concentration in mol/L into minus its log10.

CC(C)(C)OC(=O)c1cc2c(cn1)[nH]c1ccc(C#CC#Cc3ccc4[nH]c5cnc(C(=O)OC(C)(C)C)cc5c4c3)cc12 | 6.92

For the record "CC(C)(C)OC(=O)c1cc2c(cn1)[nH]c1ccc(C#Cc3ccc4[nH]c5cnc(C(=O)OC(C)(C)C)cc5c4c3)cc12" , what value of pKi is listed for α1β3γ2 GABAA/BzR (Homo sapiens, UniProt P14867+P18507)?
7.52

---

Target: α1β3γ2 GABAA/BzR (Homo sapiens, UniProt P14867+P18507)
Experiment: Competition binding to HEK cell membranes, α1β3γ2
Set-up: expressed in transfected cells
Conditions: read-out: Ki α1
We begin with a simple list: items and their reported log10 of Ki.
Note the log scale: values are log10 of Ki expressed in nM.

Consider the following illustrative entries.
CC(C)(C)OC(=O)c1ncn2c1[C@@H]1CCCN1C(=O)c1cc(-c3ccco3)ccc1-2 | 1.22
COc1ccc2c(c1)C(=O)N1CCCC1c1c(C(=O)OCC(C)C)ncn1-2 (stereo not drawn) | 2.52
C#Cc1ccc2c(c1)C(c1ccccc1F)=NC(C)C(=O)N2C (stereo not drawn) | 1.34
O=C(OCC(F)(F)F)c1ncn2c1C1CCCN1C(=O)c1cc(Br)ccc1-2 (stereo not drawn) | 3.70

If you can, please state the reported log10 of Ki value of CC(C)(C)OC(=O)c1cc2c(cn1)[nH]c1ccc(C(C)(C)C)cc12 [CM-A82a] .
0.44

If you can, please state the reported log10 of Ki value of CCC(OC(=O)c1ncn2c1C1CCCN1C(=O)c1cc(Br)ccc1-2)C(F)(F)F (stereo not drawn) [MMB-II-87] .
2.30

If you can, please state the reported log10 of Ki value of "CC(C)(C)OC(=O)c1ncn2c1[C@@H]1CCCN1C(=O)c1cc(-c3cccs3)ccc1-2" .
0.34

If you can, please state the reported log10 of Ki value of "Fc1ccc2c(c1)[nH]c1c2ncc2[nH]c3ccccc3c21" .
0.70

If you can, please state the reported log10 of Ki value of "CCOC(=O)c1cc2c(cn1)[nH]c1ccc(C#C[Si](C)(C)C)cc12" .
0.64
